Hi there, I'd appreciate the recorded protein stability index for every entry that follows.
B1: C1orf55 (parent)
chain: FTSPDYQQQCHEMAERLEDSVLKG

variants of: B1; assay: protein stability index of a GFP-peptide fusion (GPS, HEK-293T) (PSI 1-6); higher = more stable; conditions: c terminus: a fixed tail appended;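 further: lentivirally expressed fusions sorted by FACS into six bins by GFP to DsRed ratio, PSI derived from sequencing read proportions per bin multiplied by bin number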
Could you respond with only the numeric value?

Q: # input variant: S3H ; wanted: its protein stability index
Ans: 3.34

Q: # input variant: C10N ; wanted: its protein stability index
Ans: 3.37

Q: # input variant: Q7L ; wanted: its protein stability index
Ans: 2.13

Q: # input variant: V21W ; wanted: its protein stability index
Ans: 1.68

Q: # input variant: C10G ; wanted: its protein stability index
Ans: 3.29

Q: # input variant: E12M ; wanted: its protein stability index
Ans: 1.89

Q: # input variant: F1A ; wanted: its protein stability index
Ans: 4.88

Q: # input variant: A14R ; wanted: its protein stability index
Ans: 2.27

Q: # input variant: C10K ; wanted: its protein stability index
Ans: 3.46

Q: # input variant: C10D ; wanted: its protein stability index
Ans: 4.68

Q: # input variant: F1W ; wanted: its protein stability index
Ans: 3.75
